Hello, the source for this data is patent EP4755888A1, in case you need it.

Answer each item with its documented IC50.
target desc: PD-1/PD-L1 (Homo sapiens, UniProt Q9NZQ7)
Sequence (Q9NZQ7 19-238 limits assumed): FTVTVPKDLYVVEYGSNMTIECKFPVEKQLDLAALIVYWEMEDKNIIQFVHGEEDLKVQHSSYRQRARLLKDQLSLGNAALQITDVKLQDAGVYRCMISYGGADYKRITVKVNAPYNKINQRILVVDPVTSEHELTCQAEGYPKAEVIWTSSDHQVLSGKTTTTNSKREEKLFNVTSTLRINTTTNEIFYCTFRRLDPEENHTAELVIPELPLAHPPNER
assay explanation: TR-FRET PD-1/PD-L1 binding inhibition at the molecular level (free proteins)
run conditions: Tag1-PD-L1 and Tag2-PD-1 proteins, twelve concentrations from 200 nM, 2 hours at room temperature, read-out: FRET assay (IC50)

O=C(O)CNC1CCCn2nc(-c3cccc(-c4cccc(Nc5nccc6cc(CN7CC[C@@H](O)C7)cnc56)c4Cl)c3Cl)cc21 (stereo partly drawn) :: < 10 nM
CC(C)(N[C@H]1CCCn2nc(C(=O)Nc3cccc(-c4cccc(Nc5nc(C(F)(F)F)nc6cc(CN7CC[C@@H](O)C7)cnc56)c4Cl)c3Cl)cc21)C(=O)O :: 10 to 100 nM
COc1cc(-c2cccc(-c3cccc(NC(=O)c4cc5n(n4)CCCC5O)c3C)c2C)cc(F)c1CNCCNC(C)=O (stereo not drawn) :: < 10 nM
O=C(O)CNC1CCCn2nc(C(=O)Nc3cccc(-c4cccc(NC(=O)c5ccc(CNCCO)cn5)c4Cl)c3Cl)cc21 (stereo not drawn) :: < 10 nM

Go through the items and report each one's IC50.
1. Cc1c(NC(=O)c2cc3n(n2)CCC[C@H]3N2CC[C@@H](O)C2)cccc1-c1cccc(Nc2nc(C(F)(F)F)nc3cc(CN4CC[C@@H](O)C4)cnc23)c1C
2. Cc1c(NC(=O)c2cc3n(n2)CCCC3=O)cccc1-c1cccc(NC(=O)c2cc3n(n2)CCCC3=O)c1C

Result:
1. 10 to 100 nM
2. < 10 nM

* * *

target desc: PD-1/PD-L1 (Homo sapiens)
assay explanation: TR-FRET PD-1/PD-L1 binding inhibition at the molecular level (free proteins)
run conditions: Tag1-PD-L1 and Tag2-PD-1 proteins, twelve concentrations from 200 nM, 2 hours at room temperature, read-out: FRET assay (IC50)
Answer each item with its documented IC50.

Cn1c(C(=O)Nc2cccc(-c3cccc(NC(=O)c4cc5n(n4)CCC[C@@H]5N4CC[C@@H](C(=O)O)C4)c3Cl)c2Cl)nc2c1CCN(CCC13CCC(C(=O)O)(CC1)C3)C2 :: < 10 nM

Go through the items and report each one's IC50.
1. Cc1c(Nc2nccc3cc(CN4CC[C@@H](O)C4)cnc23)cccc1-c1cccc(-c2cc3n(n2)CCCC3NC[C@@H]2CCC(=O)N2)c1C (stereo partly drawn)
2. CC(C)(NC1CCCn2nc(C(=O)Nc3cccc(-c4cccc(Nc5nccc6cc(CN7CC[C@@H](O)C7)cnc56)c4Cl)c3Cl)cc21)C(=O)O (stereo partly drawn)

Result:
10 to 100 nM
10 to 100 nM

* * *

target desc: PD-1/PD-L1 (Homo sapiens)
assay explanation: TR-FRET PD-1/PD-L1 binding inhibition at the molecular level (free proteins)
run conditions: Tag1-PD-L1 and Tag2-PD-1 proteins, twelve concentrations from 200 nM, 2 hours at room temperature, read-out: FRET assay (IC50)
assay readout: IC50

Some compounds with known IC50 results, for comparison:
O=C(Nc1cccc(-c2cccc(Nc3nc(C(F)F)nc4cc(CN5CC(F)C5)cnc34)c2Cl)c1Cl)c1cc2n(n1)CCC[C@H]2N1CCC(O)CC1 :: 0.01 to 0.1 µM
O=C(O)CNC1CCCn2nc(C(=O)Nc3cccc(-c4cccc(Nc5nccc6cc(CN7CC[C@@H](O)C7)cnc56)c4Cl)c3Cl)cc21 (stereo partly drawn) :: < 0.01 µM

The record that follows has no IC50 shown yet.
Task: Enter measured IC50, system PD-1/PD-L1 (Homo sapiens), for the compound shown: "O=C(O)CN1CCn2nc(C(=O)Nc3cccc(-c4cccc(Nc5nccc6cc(CN7CC[C@@H](O)C7)cnc56)c4Cl)c3Cl)cc2C1"
Result: < 0.01 µM
